test system: sodium channel; assay: [14C] guanidine uptake induced by veratridine in rat cerebral cortex primary neurons (sodium channel inhibitory action); type: cell-based; conditions: [14C] guanidine uptake induced by 100 μM veratridine, specific uptake = portion inhibited by 1 mM mexiletine, read-out: Na Channel Inhibition IC50
Structures can show the parent of a compound that is named as a salt.
Measure: pIC50
pIC50 field: float, defined as -log10 of concentration (mol/L).

Reference set (4 entries):
{"Compound": "Cc1cccc(C)c1C=CC1CCN(C(=O)CN2CC(C)CC(C)C2)CC1 (stereo not drawn)", "Subject Of Test": "sodium channel", "Quantitative Result": 5.62}
{"Compound": "Cc1cccc(C)c1/C=C/c1ccncc1", "Subject Of Test": "sodium channel", "Quantitative Result": 4.54}
{"Compound": "Cc1cccc(C)c1/C=C/C1CCNCC1 [Example 39, monohydrochloride]", "Subject Of Test": "sodium channel", "Quantitative Result": 4.80}
{"Compound": "Cc1cccc(C)c1C=CC1CCN(C(=O)CN2CCCC3CCCCC32)CC1 (stereo not drawn)", "Subject Of Test": "sodium channel", "Quantitative Result": 5.96}

Please give the measured pIC50 for this compound: `Cc1cccc(C)c1/C=C/C1CCN(CCN(C)C)CC1` 5.14

Another: `Cc1cccc(C)c1/C=C/CC1CCN(C(=O)CN2CCOCC2)CC1` 5.30
